Every entry's value here was drawn from ChEMBL document CHEMBL2401634.

IC50, Leucine-rich repeat serine/threonine-protein kinase 2 (Homo sapiens): measured values
outcome_measure: IC50 (µM)

[a] COc1ccc2c(c1)/C(=C/c1cc3c([nH]1)CCN(C(=O)N1CCOCC1)C3)C(=O)N2C
[b] CC(=O)N1CCc2[nH]c(/C=C3\C(=O)Nc4ccc(C(F)(F)F)cc43)cc2C1
[c] COc1ccc2c(c1)/C(=C/c1cc3c([nH]1)CCN(C(=O)N1CCOCC1)C3)C(=O)N2
[d] COc1ccc2c(c1)/C(=C/c1[nH]c(C)c(C(=O)NCCCN)c1C)C(=O)N2
Arrange the 4 molecules by rising IC50, starting with the smallest. I'd appreciate it if you listed the labels in the requested order.
c, b, d, a
